Would you kindly list inhibition at 1 µM for each of these molecules?
- Target or system: FAAH (Mus musculus)
- Sequence (O08914 whole entry): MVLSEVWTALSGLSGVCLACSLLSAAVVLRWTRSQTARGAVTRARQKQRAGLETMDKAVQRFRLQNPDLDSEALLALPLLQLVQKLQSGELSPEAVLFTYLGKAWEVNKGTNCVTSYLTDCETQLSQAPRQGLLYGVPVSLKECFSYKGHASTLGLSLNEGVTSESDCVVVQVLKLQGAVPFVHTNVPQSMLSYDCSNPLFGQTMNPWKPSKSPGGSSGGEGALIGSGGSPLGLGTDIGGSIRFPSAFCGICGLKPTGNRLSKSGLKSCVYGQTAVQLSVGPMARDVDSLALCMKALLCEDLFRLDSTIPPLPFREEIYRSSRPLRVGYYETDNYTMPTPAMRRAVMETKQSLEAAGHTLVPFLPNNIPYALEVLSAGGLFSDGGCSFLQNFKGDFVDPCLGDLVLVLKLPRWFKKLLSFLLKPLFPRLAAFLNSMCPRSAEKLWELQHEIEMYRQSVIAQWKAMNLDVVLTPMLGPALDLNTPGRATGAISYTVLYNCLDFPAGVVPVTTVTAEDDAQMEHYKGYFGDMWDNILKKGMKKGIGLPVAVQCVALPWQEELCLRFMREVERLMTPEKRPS
- Assay notes: In vitro competitive activity-based protein profiling, FAAH, mouse
- Measurement conditions: read-out: FAAH % inh. 1 μM (mouse)

For NC(=O)c1ccn(C(=O)N2CCC3(CCN(Cc4ccc(N5CCOCC5)cc4Cl)C3)CC2)n1 [Example 197] , what is its reported inhibition at 1 µM?
> 75%

For C[C@@H]1CC[C@H](C)N1c1cc(C(F)(F)F)ccc1CN(C)C1(C)CCN(C(=O)n2ccc(C(=O)O)n2)CC1 [Example 160] , what is its reported inhibition at 1 µM?
0 to 25%

For O=C(O)c1nn(C(=O)N2CCN(Cc3ccc(-c4cnc5ccccn45)cc3C(F)(F)F)CC2)cc1Cl [Example 145] , what is its reported inhibition at 1 µM?
> 75%
